# tested.system: mouse SMO^W535L (Mus musculus, UniProt P56726, W539L)
# Construct: expressed in transfected cells
# Sequence (P56726 33-793 W539L): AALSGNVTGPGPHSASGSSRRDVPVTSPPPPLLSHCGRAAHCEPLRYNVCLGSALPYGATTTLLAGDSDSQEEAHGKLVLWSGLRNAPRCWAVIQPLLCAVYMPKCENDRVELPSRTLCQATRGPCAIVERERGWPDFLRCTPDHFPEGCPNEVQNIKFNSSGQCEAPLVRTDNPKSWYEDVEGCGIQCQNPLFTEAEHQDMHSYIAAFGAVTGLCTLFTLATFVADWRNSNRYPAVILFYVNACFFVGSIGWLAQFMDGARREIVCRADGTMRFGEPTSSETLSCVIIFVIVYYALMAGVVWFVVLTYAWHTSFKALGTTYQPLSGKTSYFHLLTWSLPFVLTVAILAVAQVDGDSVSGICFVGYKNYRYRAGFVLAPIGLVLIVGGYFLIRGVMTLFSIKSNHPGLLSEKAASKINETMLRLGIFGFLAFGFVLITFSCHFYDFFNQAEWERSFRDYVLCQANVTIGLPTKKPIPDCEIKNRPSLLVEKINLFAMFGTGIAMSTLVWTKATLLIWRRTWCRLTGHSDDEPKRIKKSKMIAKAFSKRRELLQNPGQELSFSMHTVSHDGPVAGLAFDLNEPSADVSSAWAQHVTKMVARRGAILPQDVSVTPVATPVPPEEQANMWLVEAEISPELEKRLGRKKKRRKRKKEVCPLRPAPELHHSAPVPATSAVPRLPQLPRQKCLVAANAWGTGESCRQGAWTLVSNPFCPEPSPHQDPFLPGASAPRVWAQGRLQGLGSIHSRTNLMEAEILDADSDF
# protocol.notes: Mouse assay: Gli1 qPCR in MEF cells stably expressing mouse SMO W535L; also: test concentration or dose not given here
# Assay type: cell-based
# cond: mSHh-treated, 24 hours, percentage Gli1 inhibition
Reported Mouse W535L % Inh values for the following compounds.

compound: Cc1oc(-c2ccc(NC(=O)c3ccc(Cl)c(CN4CCS(=O)(=O)CC4)c3)cn2)nc1C1CC1
tested.system: mouse SMO^W535L (Mus musculus, UniProt P56726, W539L)
Mouse W535L % Inh / %: 82.7

compound: O=C(Nc1ccc(-c2cc(Cc3ccccc3)n[nH]2)cc1)c1cccc(CN2CCS(=O)(=O)CC2)c1
tested.system: mouse SMO^W535L (Mus musculus, UniProt P56726, W539L)
Mouse W535L % Inh / %: 76.6

compound: Cc1c(-c2ccc(NC(=O)c3cccc(CN4CCS(=O)(=O)CC4)c3)cc2)nn(C)c1C1CC1
tested.system: mouse SMO^W535L (Mus musculus, UniProt P56726, W539L)
Mouse W535L % Inh / %: 65.7

compound: O=C(Nc1ccc(-c2nc(C3CCCN(Cc4ccccc4)C3)n[nH]2)cc1)c1cccc(CN2CCS(=O)(=O)CC2)c1 (stereo not shown)
tested.system: mouse SMO^W535L (Mus musculus, UniProt P56726, W539L)
Mouse W535L % Inh / %: 63.2

compound: O=C(Nc1ccc(-c2nc(C3CCN(c4ccccc4)C3)n[nH]2)cc1)c1cccc(CN2CCS(=O)(=O)CC2)c1 (stereo not shown)
tested.system: mouse SMO^W535L (Mus musculus, UniProt P56726, W539L)
Mouse W535L % Inh / %: 57.9

compound: CN(C)c1nnc(-c2ccc(NC(=O)c3cccc(CN4CCS(=O)(=O)CC4)c3)cc2)o1
tested.system: mouse SMO^W535L (Mus musculus, UniProt P56726, W539L)
Mouse W535L % Inh / %: 70.0

compound: O=C(Nc1ccc(-c2nc(Cc3ccccc3F)n[nH]2)cc1)c1cccc(CN2CCS(=O)(=O)CC2)c1
tested.system: mouse SMO^W535L (Mus musculus, UniProt P56726, W539L)
Mouse W535L % Inh / %: 64.3

Cited source for all entries: patent US20250136559A1
